Some compounds, each annotated with its measured GI50.
- Test system: HCT-15

Example entries begin here.
C=CC12CN(C)C3C4COC(CC41)C1(C(=O)Nc4ccccc41)C32 (configuration not stated); > 195 µM
CC1(CCCCO)C=CC(S(=O)(=O)c2ccccc2)CC1 (configuration not stated); 3.69 µM
COc1ccc(C2=C(Cl)c3cc(OC)c(OC)cc3C2=O)cc1OC; 6.9 µM
O=C(O)CN(CC(=O)O)C1CCCCC1N(CC(=O)O)CC(=O)NCCN=C=S (configuration not stated); > 100 µM
Cn1c(-c2ccccc2)c/c(=N\NS(C)(=O)=O)c2cc(S(=O)(=O)O)ccc21; > 100 µM
S=C(c1c[nH]c2ccccc12)N1CCCCC1; 82.2 µM

In the following, a different compound is considered.
**Q:** Return GI50 measured with HCT-15 given this compound: c1ccc(C2=NOC3COc4ccccc4OCC23)cc1 (configuration not stated)
**A:** > 100 µM

* * *

- System: DU-145
- Procedure Details: NCI tumour cell line growth inhibition, 48 h
Activity calls are given as the source filed them. No stated cut-off is given here; in the data, active = GI50 up to about 1.1 µM and inactive = higher.
Reported Property: GI50

CCn1c(-c2ccc(/N=N/Nc3ccc(-c4n[nH]c(=S)n4CC)cc3)cc2)n[nH]c1=S; 2.87 µM (inactive)

**Q:** Return GI50 measured with DU-145 given this compound: C=CCCCC1(C)CCCCNC1=O (stereo not given)
**A:** > 10 µM (inactive)

**Q:** Another compound to check: CC1(C)S[C@@H]2[C@H](N3C(=O)c4ccccc4C3=O)CN2[C@H]1NC(=O)N[C@@H]1N2C[C@@H](N3C(=O)c4ccccc4C3=O)[C@H]2SC1(C)C
**A:** > 100 µM (inactive)

**Q:** Another compound to check: Oc1ccc(-c2nc(-c3cccnc3)c(-c3ccc(Cl)cc3)[nH]2)cc1O
**A:** 22 µM (inactive)

**Q:** Another compound to check: O=C(/C=C/c1ccsc1)c1cccs1
**A:** > 100 µM (inactive)

**Q:** Another compound to check: COc1cc(/C=C2/SC(c3ccccc3)N(c3cc(Cl)ccc3Cl)C2=O)cc(OC)c1OC (stereo not given)
**A:** > 100 µM (inactive)

**Q:** Another compound to check: O=c1[nH]c2cc(Cl)ccc2nc1/C(=N/Nc1ccccc1)C(O)c1ccco1 (stereo not given)
**A:** > 100 µM (inactive)

* * *

Some compounds, each annotated with its measured GI50.
- System: XF498
- Procedure Details: NCI tumour cell line growth inhibition, 48 h
The source made the active and inactive calls. Rule as the data show it: active = GI50 up to about 1.1 µM and inactive = higher.

**Q:** Quick check: GI50 of COC(=O)c1sc(C(=O)OC)c2c1C[S+]([O-])C2 ?
**A:** 38.7 µM (inactive)

**Q:** Another compound to check: COc1cc(-c2ccc(/N=N/c3ccc4c(S(=O)(=O)O)cc(S(=O)(=O)O)c(N)c4c3O)c(OC)c2)ccc1/N=N/c1ccc2c(S(=O)(=O)O)cc(S(=O)(=O)O)c(N)c2c1O
**A:** 36.1 µM (inactive)

**Q:** Another compound to check: CN(C)CC(C)(C)C(=O)/C=C/c1ccccc1
**A:** 11.6 µM (inactive)

**Q:** Another compound to check: COc1cccc(NC(=O)N/C(=C/c2ccc(N(CCC#N)CCC#N)cc2)NC(=O)c2cc([N+](=O)[O-])ccc2Cl)c1
**A:** > 100 µM (inactive)

* * *

- Test system: BT-549
- Procedure Details: NCI tumour cell line growth inhibition, 48 h
The source made the active and inactive calls. Cut-off read from the data, not from the text of the source: active = GI50 up to about 1.1 µM and inactive = higher.
Could you please pick one outcome from this set? YES = active, NO = inactive

CC1CC[C@@]2(OC1)O[C@H]1[C@H](O)[C@H]3[C@@H]4CC[C@H]5C[C@@H](OC6OC(CO)C(OC7OC(CO)C(O)C(OC8OCC(O)C(O)C8O)C7OC7OC(CO)C(O)C(O)C7OC7OC(CO)C(O)C(O)C7O)C(O)C6O)[C@H](O)C[C@]5(C)[C@H]4CC[C@]3(C)[C@H]1[C@@H]2C (stereo partly drawn); NO
Nc1nc(Cl)c(CO)c(NCC2(CO)CCC2)n1; NO

**Q:** Test call for this compound, please: COC(=O)C1=C(O)C(C(=O)OC)[C@@]2(O)[C@@H](C(=O)OC)CC[C@@H]1[C@@H]2C(=O)OC (stereo partly drawn)
**A:** NO

**Q:** Another compound to check: COc1cc(Br)cc2nc(-c3cccs3)oc12
**A:** NO

**Q:** Another compound to check: N=C(NCc1ccccc1)N/N=C\c1ccnc2ccccc12
**A:** NO

**Q:** Another compound to check: O=C(NCCNCCO)N/N=C/c1ccc([N+](=O)[O-])cc1
**A:** NO

**Q:** Another compound to check: C=CCOC(=O)/C(=C\c1ccc(OC)c(OC)c1)c1ccc(OC)c(OC)c1
**A:** NO

**Q:** Another compound to check: CCCCC[C@@H]1OCO[C@@]2(C)/C=C(C)\C=C/C(=O)O[C@H]([C@@H](C)[C@@H](O)[C@H](C)[C@@]3(O)C[C@@H](O[C@H]4C[C@@H](O)[C@H](O)[C@@H](C)O4)[C@H](C)[C@@H](C)O3)[C@@H](OC)/C=C\C=C(\C)C[C@@H]1[C@@H]2O (stereo in doubt)
**A:** YES

* * *

- Test system: UACC-62
- Procedure Details: NCI tumour cell line growth inhibition, 48 h
Activity calls are given as the source filed them. Rule as the data show it: active = GI50 up to about 1.1 µM and inactive = higher.
Reported Property: GI50

Example entries begin here.
COc1ccc(OC)c2[nH]c(Sc3c([N+](=O)[O-])ncn3C)nc12; 18.5 µM (inactive)
COCOCC/C=C/C=O; > 100 µM (inactive)
CCOC(=O)c1c[nH]c(C(=O)C=[N+]=[N-])c1C1CCN(CC)C1=S (stereo unspecified); > 100 µM (inactive)
COc1cc(S(=O)(=O)N/N=C/C=C/c2ccccc2)c(OC)cc1NC(C)=O; 86.9 µM (inactive)

In the following, a different compound is considered.
**Q:** Quick check: GI50 of COCCOCCOCCC(=O)NC1CC2CCC1(C)C2(C)C (stereo unspecified) ?
**A:** > 100 µM (inactive)

* * *

Entries below carry reported GI50 on HCT-15.

Example entries begin here.
COC(=O)c1cc2c(o1)Sc1ccccc1NC2=O; > 100 µM
Cc1[nH]c(=O)[nH]c(=O)c1/C=C/C(=O)NC(CO)C[S+]([O-])Cc1ccccc1 (stereo unspecified); > 300 µM
CCOC(=O)C(C)NC(=O)C(C)NC(=O)C(C)NC(=O)C(C)NC(=O)C(C)NC(=O)OCc1ccccc1 (stereo unspecified); > 100 µM
CCc1oc2ccc(OC)c3c2c1C=CC=C3; > 100 µM

**Q:** Quick check: GI50 of CC(=O)CCn1c(=S)sc2ccccc21 ?
**A:** > 100 µM

**Q:** Another molecule to check: c1ccc(CN(Cc2ccccn2)Cn2cccn2)nc1
**A:** 28.7 µM

**Q:** Another molecule to check: COc1ccc2nc3n(c2c1)C(c1c(F)cccc1F)SC3 (stereo unspecified)
**A:** 43.2 µM

**Q:** Another molecule to check: CC(=O)NNc1nc(C)c(C(/C=C/c2ccccc2O)=N/NC(=O)c2ccncc2)s1
**A:** > 100 µM

**Q:** Another molecule to check: CCN(C(=N)C#N)c1ccccc1
**A:** > 45.4 µM

**Q:** Another molecule to check: CN1N=C(c2ccncc2)OC1c1ccccc1F (stereo unspecified)
**A:** > 100 µM

**Q:** Another molecule to check: COC(=O)C1=C(O)C(C(=O)OC)[C@@]2(O)[C@@H](C(=O)OC)CC[C@@H]1[C@@H]2C(=O)OC (stereo partly specified)
**A:** 20.6 µM

* * *

Some compounds, each annotated with its measured GI50.
- Tested on: SK-OV-3
- Procedure Details: NCI tumour cell line growth inhibition, 48 h
Active and inactive are the calls of the source. Cut-off read from the data, not from the text of the source: active = GI50 up to about 1.1 µM and inactive = higher.

Example entries begin here.
COc1cc(S(=O)(=O)N/N=C/C=C/c2ccccc2)c(OC)cc1NC(C)=O; > 100 µM (inactive)
CC1=CCC[C@H]2[C@](C)(CC3=CC(=O)C(SCC(C)C)=CC3=O)[C@@H](C)CC[C@]12C; 19.5 µM (inactive)
Nc1nc2c(c(-c3cccc(Cl)c3)n1)COC/C2=C\c1cccc(Cl)c1; > 100 µM (inactive)
CC(C)(C)[Si](C)(C)OCC1OC(n2ccc(=O)[nH]c2=O)C(O[Si](C)(C)C(C)(C)C)/C1=N/O (centres undefined); 6.41 µM (inactive)
Cc1cccc2c1C(=O)C1(Cc3ccccc3C1=O)C2 (centres undefined); > 100 µM (inactive)

**Q:** Return GI50 measured with SK-OV-3 given this compound: COc1cc(Br)cc2nc(-c3cccs3)oc12
**A:** > 90.6 µM (inactive)

**Q:** Another compound to check: CCOC(=O)c1c(C)n(-c2ccc(Cl)cc2)c2c1cc(O)c1[nH]c3c(c12)CCCC3
**A:** > 100 µM (inactive)

**Q:** Another compound to check: COc1cccc([C@@H]2C/C(=N\NC(=O)C(=O)N[C@@H](C)c3ccccc3)c3cc4c(cc3N2)OCO4)c1
**A:** > 100 µM (inactive)

**Q:** Another compound to check: Oc1ccc(-c2nc(-c3cccnc3)c(-c3ccc(Cl)cc3)[nH]2)cc1O
**A:** 12.4 µM (inactive)
